In this section, each of the molecules is paired with its reported melting point.
Counter-ions that a name gives are not always drawn.
ENDPOINT: melting point

{"MOLECULE": "NCC(=O)Nc1nc2ccccc2n1C1CCN(C2(c3ccccc3)CCCCCCC2)CC1 (as salt: HCl)", "ENDPOINT": "melting point", "OBSERVED RESULT": "217 to 221 °C"}
{"MOLECULE": "NCCOc1nc2ccccc2n1C1CCN(C2(c3ccccc3)CCCCCC2)CC1 (as salt: HCl)", "ENDPOINT": "melting point", "OBSERVED RESULT": "180 to 184 °C"}
{"MOLECULE": "c1ccc(N2CCN(c3nc4ccccc4n3C3CCN(C4(c5ccccc5)CCCCCC4)CC3)CC2)cc1 (as salt: HCl)", "ENDPOINT": "melting point", "OBSERVED RESULT": "188 to 192 °C"}
{"MOLECULE": "NCCNc1nc2ccccc2n1C1CCN(C2(c3ccccc3)CCCCCC2)CC1 (as salt: HCl)", "ENDPOINT": "melting point", "OBSERVED RESULT": "228 to 232 °C"}
{"MOLECULE": "c1ccc(C2(N3CCC(n4c(N5CCCCC5)nc5ccccc54)CC3)CCCCCC2)cc1 (as salt: HCl)", "ENDPOINT": "melting point", "OBSERVED RESULT": "177 to 180 °C"}
{"MOLECULE": "CSc1nc2ccccc2n1C1CCN(C2(c3ccccc3)CCCCCC2)CC1 (as salt: HCl)", "ENDPOINT": "melting point", "OBSERVED RESULT": "168 to 171 °C"}
{"MOLECULE": "Clc1nc2ccccc2n1C1CCN(C2(c3ccccc3)CCCCCC2)CC1 (as salt: HCl)", "ENDPOINT": "melting point", "OBSERVED RESULT": "153 to 156 °C"}
{"MOLECULE": "c1ccc(C2(N3CCC(n4c(OC5CCNCC5)nc5ccccc54)CC3)CCCCCC2)cc1 (as salt: HCl)", "ENDPOINT": "melting point", "OBSERVED RESULT": "114 to 118 °C"}
{"MOLECULE": "OC1CCN(c2nc3ccccc3n2C2CCN(C3(c4ccccc4)CCCCCC3)CC2)CC1 (as salt: HCl)", "ENDPOINT": "melting point", "OBSERVED RESULT": "208 to 212 °C"}
{"MOLECULE": "c1ccc(C2(N3CCC(n4c(NC5CCNCC5)nc5ccccc54)CC3)CCCCCC2)cc1 (as salt: HCl)", "ENDPOINT": "melting point", "OBSERVED RESULT": "231 to 235 °C"}
{"MOLECULE": "c1ccc(C2(N3CCC(n4c(N5CCNCC5)nc5ccccc54)CC3)CCCCCC2)cc1 (as salt: HCl)", "ENDPOINT": "melting point", "OBSERVED RESULT": "159 to 163 °C"}
{"MOLECULE": "c1ccc(C2(N3CCC(n4c(N5CCCC5)nc5ccccc54)CC3)CCCCCC2)cc1 (as salt: HCl)", "ENDPOINT": "melting point", "OBSERVED RESULT": "178 to 181 °C"}
{"MOLECULE": "NC1CCN(c2nc3ccccc3n2C2CCN(C3(c4ccccc4)CCCCCC3)CC2)CC1 (as salt: HCl)", "ENDPOINT": "melting point", "OBSERVED RESULT": "225 to 228 °C"}
{"MOLECULE": "CS(=O)(=O)c1nc2ccccc2n1C1CCN(C2(c3ccccc3)CCCCCC2)CC1 (as salt: HCl)", "ENDPOINT": "melting point", "OBSERVED RESULT": "155 to 158 °C"}
{"MOLECULE": "CNC(C)Nc1nc2ccccc2n1C1CCN(C2(c3ccccc3)CCCCCC2)CC1 (centres unmarked) (as salt: HCl)", "ENDPOINT": "melting point", "OBSERVED RESULT": "173 to 177 °C"}
{"MOLECULE": "O=C1CCN(c2nc3ccccc3n2C2CCN(C3(c4ccccc4)CCCCCC3)CC2)CC1 (as salt: HCl)", "ENDPOINT": "melting point", "OBSERVED RESULT": "168 to 172 °C"}
{"MOLECULE": "N=C(N)NCCNc1nc2ccccc2n1C1CCN(C2(c3ccccc3)CCCCCC2)CC1 (as salt: salt)", "ENDPOINT": "melting point", "OBSERVED RESULT": "215 to 218 °C"}

---

Structures can show the parent of a compound that is named as a salt.

{"COMPOUND": "CN(C)CCNc1nc2ccccc2n1C1CCN(C2(c3ccccc3)CCCCCC2)CC1 (as salt: HCl)", "melting point": "188 to 192 °C"}
{"COMPOUND": "ON=C1CCN(c2nc3ccccc3n2C2CCN(C3(c4ccccc4)CCCCCC3)CC2)CC1 (as salt: fumaric acid salt)", "melting point": "201 to 204 °C"}
{"COMPOUND": "c1ccc(C2(N3CCC(n4c(N5CCOCC5)nc5ccccc54)CC3)CCCCCC2)cc1 (as salt: HCl)", "melting point": "172 to 176 °C"}
{"COMPOUND": "c1ccc(CN2CCN(c3nc4ccccc4n3C3CCN(C4(c5ccccc5)CCCCCC4)CC3)CC2)cc1 (as salt: HCl)", "melting point": "139 to 143 °C"}
{"COMPOUND": "CCCCCNc1nc2ccccc2n1C1CCN(C2(c3ccccc3)CCCCCC2)CC1 (as salt: HCl)", "melting point": "156 to 159 °C"}
